Value source: the Immune Epitope Database (IEDB)

assayed_target: HLA-B*51:01
procedure_text: IEDB peptide-MHC binding, purified MHC/competitive/fluorescence; filed as Kd, often an IC50 or EC50 that approximates it; bounds were set here for any values at or beyond the usual limits of such assays
particulars: source organism: Zaire ebolavirus
Measured Kd values are reported for all entries that follow.

{"sequence_code": "LSDLCNFLV", "Kd": "≥ 20 µM"}

// switching to the query sequence
# return recorded Kd for input LEARVNLSV
≥ 20 µM

###

assayed_target: HLA-B*15:42
procedure_text: IEDB peptide-MHC binding, purified MHC/competitive/fluorescence; filed as Kd, often an IC50 or EC50 that approximates it; bounds were set here for any values at or beyond the usual limits of such assays
particulars: source organism: Mycobacterium tuberculosis variant bovis BCG str. Pasteur 1173P2
value_kind: Kd

# return recorded Kd for input MAAVRTTAL
≥ 5 µM

###

assayed_target: HLA-A*01:01
procedure_text: IEDB peptide-MHC binding, purified MHC/direct/fluorescence; filed as Kd, often an IC50 or EC50 that approximates it; bounds were set here for any values at or beyond the usual limits of such assays
particulars: source organism: Burkholderia mallei
pKd: −log10 of the molar value.
Measured pKd values are reported for all entries that follow.

{"sequence_code": "AVAVARVAA", "pKd": "≤ 4.70"}

# return recorded pKd for input APAKKAAAK
≤ 4.70

###

assayed_target: HLA-B*46:01
procedure_text: IEDB peptide-MHC binding, purified MHC/competitive/fluorescence; filed as Kd, often an IC50 or EC50 that approximates it; bounds were set here for any values at or beyond the usual limits of such assays
particulars: source organism: Mycobacterium tuberculosis variant bovis BCG str. Pasteur 1173P2
value_kind: Kd

# return recorded Kd for input DEGFHAATV
≥ 20 µM

###

Measured Kd values are reported for all entries that follow.
assayed_target: HLA-A*02:12
procedure_text: IEDB peptide-MHC binding, purified MHC/direct/fluorescence; filed as Kd, often an IC50 or EC50 that approximates it; bounds were set here for any values at or beyond the usual limits of such assays
particulars: source organism: Orthohantavirus sangassouense

{"sequence_code": "FIYGYLEPV", "Kd": "≤ 1 nM"}

# return recorded Kd for input GLYPAQIKA
126 nM

###

assayed_target: HLA-A*29:02
procedure_text: IEDB peptide-MHC binding, purified MHC/direct/fluorescence; filed as Kd, often an IC50 or EC50 that approximates it; bounds were set here for any values at or beyond the usual limits of such assays
particulars: source organism: Zaire ebolavirus
pKd: −log10 of the molar value.
value_kind: pKd

# return recorded pKd for input LSDLCNFLV
≤ 4.70

###

assayed_target: HLA-A*30:01
procedure_text: IEDB peptide-MHC binding, purified MHC/competitive/fluorescence; filed as Kd, often an IC50 or EC50 that approximates it; bounds were set here for any values at or beyond the usual limits of such assays
particulars: source organism: Vibrio vulnificus YJ016
value_kind: Kd (µM)
# number only, unit µM dropped from output

# return recorded Kd for input YQRALHTSI
1.12

###

assayed_target: HLA-A*03:01
procedure_text: IEDB peptide-MHC binding, purified MHC/competitive/radioactivity; filed as Kd, often an IC50 or EC50 that approximates it; bounds were set here for any values at or beyond the usual limits of such assays
particulars: source organism: Dengue virus 1 Singapore/S275/1990
value_kind: pKd
Keep it numeric: pKd is minus log10 of the concentration in mol/L.

{"sequence_code": "GLAMGIMILK", "pKd": 7.68}

// switching to the query sequence
# return recorded pKd for input ILARWGSFKK
8.01
